read-out: Ezrin (EZR), EZR (gene 7430); test: LTEA_HepaRG_EZR: Life Technologies and Expression Analysis (LTEA) Assay for Ezrin (EZR) using HepaRG (AID 2283491); conditions: mRNA level, 48 h; actives raise or lower the signal
Activity calls are given as the source filed them. Rule for the calls: active = hit-call score of the fitted dose curve at least 0.9, where 1 is the maximum; inactive = score below 0.9.
PARAMETER: outcome

O=C(NC(=O)c1c(F)cccc1F)Nc1cc(Cl)c(OC(F)(F)C(F)F)c(Cl)c1
inactive
C[C@]12CCC(=O)C=C1CC[C@@H]1[C@@H]2CC[C@@]2(C)[C@H]1CC[C@]2(C)O
inactive
Nn1cnnc1
inactive
CC(C)C(=O)OCC(C)(C)C(OC(=O)C(C)C)C(C)C (stereo unspecified)
inactive
Clc1ccc(Cl)cc1
inactive

Could you tell me outcome for each of these compounds? They are listed below.
1. O=C(O)C(F)(F)C(F)(F)C(F)(F)C(F)(F)C(F)(F)F
2. O=S(=O)(O)C(F)(F)C(F)(F)C(F)(F)C(F)(F)F
3. CCNc1nc(NC(C)C)nc(SC)n1
4. C1CC2OC2CC1C1CO1 (stereo unspecified)
5. CN(C)CCO
6. Cc1ccccc1[N+](=O)[O-]

result:
inactive
inactive
inactive
inactive
inactive
inactive

###

target: Retinoic acid receptor alpha (Homo sapiens); experiment: ATG_DR5_RAR_CIS: Attagene CIS-FACTORIAL HepG2 Assay for human Retinoic Acid Receptor Alpha (RARE), DR5 submotif (AID 2282934); conditions: HepG2 Attagene cis-factorial RARE DR5 reporter, mRNA; actives raise or lower the signal
The source made the active and inactive calls. The calls were made as follows: active = hit-call score of the fitted dose curve at least 0.9, where 1 is the maximum; inactive = score below 0.9.
Form entry, call: pick from label 1 = active, label 0 = inactive

Clc1ccc(C(c2ccccc2Cl)C(Cl)(Cl)Cl)cc1 (stereo unspecified)
label 0
Cc1cccc(C)c1N
label 0
CN(C)CCO
label 0
Cc1ccc(O)c(C)c1
label 0
CCCCCCCCCC[N+](C)(C)CCCCCCCCCC
label 0

query: Per the records of this test, what outcome belongs to `CCCCCCOC(=O)c1ccccc1C(=O)OCCCCCC` ?
result: label 0

query: Then `c1ccc(-c2ccccc2)cc1` ?
result: label 0

query: Then `O=C(NC(=O)c1c(F)cccc1F)Nc1cc(Cl)c(OC(F)(F)C(F)F)c(Cl)c1` ?
result: label 0

query: Then `CCCN(CCC)N=O` ?
result: label 0

query: Then CCC(C)c1cc([N+](=O)[O-])cc([N+](=O)[O-])c1O (stereo unspecified) ?
result: label 1

query: Then `C=CC(=O)NCNC(=O)C=C` ?
result: label 0

query: Then `CCOCCOC(C)=O` ?
result: label 0

###

read-out: Apolipoprotein A-V (APOA5) gene, APOA5 (gene 116519); experiment: LTEA_HepaRG_APOA5: Life Technologies and Expression Analysis (LTEA) Assay for Apolipoprotein A-V (APOA5) gene using HepaRG (AID 2283474); conditions: mRNA level, 48 h; actives raise or lower the signal
Active and inactive are the calls of the source. The calls were made as follows: active = hit-call score of the fitted dose curve at least 0.9, where 1 is the maximum; inactive = score below 0.9.
Form entry, call: pick from True = active, False = inactive

Solved entries:
CCOC(=O)C(O)(c1ccc(Cl)cc1)c1ccc(Cl)cc1
False
CCCCCCCCCc1ccc(O)cc1
False
O=NN(c1ccccc1)c1ccccc1
True
COS(=O)(=O)OC
False
COc1ccc(O)c(C(C)(C)C)c1
False

query: Per the records of this test, what outcome belongs to `CCCCCCCCOC(=O)c1ccccc1C(=O)OCCCCCCCC` ?
result: False

query: Then CCC(C)c1cc([N+](=O)[O-])cc([N+](=O)[O-])c1O (stereo unspecified) ?
result: True

query: Then `O=S(=O)(O)C(F)(F)C(F)(F)C(F)(F)C(F)(F)C(F)(F)C(F)(F)F` ?
result: True

query: Then `O=C(NC(=O)c1cc(F)c(F)cc1Cl)Nc1cc(F)ccc1N1CCC(C(=O)O)CC1` ?
result: False

query: Then `CCOCCOC(C)=O` ?
result: False

query: Then `O=C(O)C(F)(F)C(F)(F)C(F)(F)C(F)(F)C(F)(F)F` ?
result: False

query: Then `CCC(C)(CC)c1cc(NC(=O)c2c(OC)cccc2OC)on1` ?
result: False

query: Then `Nn1cnnc1` ?
result: False

query: Then `Cc1ccccc1[N+](=O)[O-]` ?
result: False

query: Then Clc1ccc(C(c2ccccc2Cl)C(Cl)(Cl)Cl)cc1 (stereo unspecified) ?
result: True

query: Then `CC(c1ccc(O)cc1)(c1ccc(O)cc1)c1ccc(O)cc1` ?
result: False

query: Then `CCSC(=O)N(CC)C1CCCCC1` ?
result: False

query: Then `Cc1ccc(O)c(C)c1` ?
result: False

query: Then `Nc1ccc(-c2ccc(N)cc2)cc1` ?
result: False

query: Then `Oc1ccc(C(c2ccc(O)cc2)(C(F)(F)F)C(F)(F)F)cc1` ?
result: False

query: Then `C[C@]12CCC(=O)C=C1CC[C@@H]1[C@@H]2CC[C@@]2(C)[C@H]1CC[C@]2(C)O` ?
result: True

query: Then `CC(C)(O)C(=O)Nc1ccc([N+](=O)[O-])c(C(F)(F)F)c1` ?
result: True

Hello, the source for this data is PubChem BioAssay (EPA / NIEHS), in case you need it.
